Recorded values, source ChEMBL document CHEMBL3596172.

Recorded pKi by entry
- system: D(3) dopamine receptor (Homo sapiens)
- Sequence (P35462 whole entry): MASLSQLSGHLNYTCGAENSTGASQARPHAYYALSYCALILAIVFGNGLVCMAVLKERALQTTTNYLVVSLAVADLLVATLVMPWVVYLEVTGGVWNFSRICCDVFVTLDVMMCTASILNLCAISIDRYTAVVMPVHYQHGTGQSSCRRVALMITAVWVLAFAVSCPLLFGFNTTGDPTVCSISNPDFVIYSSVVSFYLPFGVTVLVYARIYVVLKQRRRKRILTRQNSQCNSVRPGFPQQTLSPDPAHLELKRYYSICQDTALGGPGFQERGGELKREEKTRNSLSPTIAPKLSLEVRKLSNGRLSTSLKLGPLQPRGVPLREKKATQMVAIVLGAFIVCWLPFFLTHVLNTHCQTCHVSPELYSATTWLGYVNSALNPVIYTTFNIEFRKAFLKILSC
Just the number, please; pKi means minus log10 of the concentration in mol/L.

Inquiry: Notebook: pull reported pKi for D(3) dopamine receptor (Homo sapiens), entry COc1ccc2ncc(C(=O)NCCC(O)CN3CCN(c4ccccc4OC)CC3)cc2c1 (centres undefined)
Reply text: 7.16

Inquiry: Notebook: pull reported pKi for D(3) dopamine receptor (Homo sapiens), entry COc1ccccc1N1CCN(CC(O)CCNC(=O)c2ccc3ccccc3n2)CC1 (centres undefined)
Reply text: 7.01

----------
- system: UniProt:P35462
pKi: −log10 of the molar value.
Classify by measured pKi: Condition met if it is equal to or exceeds 8, Condition not met if it is smaller.

Worked set:
molecule | class.assignment
COc1ccccc1N1CCN(CC(O)CCNC(=O)c2cnc3ccc(F)cc3c2)CC1 (configuration not stated) | Condition not met
COc1ccccc1N1CCN(CC(O)CCNC(=O)c2cnc3ccc(C)cc3c2)CC1 (configuration not stated) | Condition not met
COc1ccccc1N1CCN(CCCCNC(=O)c2ccc3ccccc3n2)CC1 | Condition met
COc1ccccc1N1CCN(CC(O)CCNC(=O)c2ccc3cccnc3c2)CC1 (configuration not stated) | Condition not met
COc1ccccc1N1CCN(CC(O)CCNC(=O)c2ccc3cc(F)ccc3n2)CC1 (configuration not stated) | Condition not met

Inquiry: Record COc1ccccc1N1CCN(CCCCNC(=O)c2cnc3ccc(F)cc3c2)CC1 ; criterion: pKi no lower than 8. Met?
Reply text: Condition met

Inquiry: Record COc1ccc2[nH]c(C(=O)NCCCCN3CCN(c4cccc5ccccc45)CC3)cc2c1 ; criterion: pKi no lower than 8. Met?
Reply text: Condition met
